Cited source for all entries: patent US6350749B1

molecular target: Na—H exchange (Rattus norvegicus, UniProt P26431); construct: The blood was centrifuged at 3000 rpm for 5 seconds to obtain platelet rich plasma (PRP); from tissue; host or cells: platelets in platelet rich plasma from abdominal aortic blood of male Wistar rats; assay: Rat platelet swelling in sodium propionate solution (light transmittance of PRP), inhibition of Na—H exchange; assay type: cell-based; details: 1 min, test compound 10^−7 M; rat platelet rich plasma; value 1 minute after sodium propionate solution; 100% = difference between 1% DMSO and HOE-642 (10^−5M); read-out: Inhibition Rate (%) [10^−7 M]
Sequence (P26431 whole entry): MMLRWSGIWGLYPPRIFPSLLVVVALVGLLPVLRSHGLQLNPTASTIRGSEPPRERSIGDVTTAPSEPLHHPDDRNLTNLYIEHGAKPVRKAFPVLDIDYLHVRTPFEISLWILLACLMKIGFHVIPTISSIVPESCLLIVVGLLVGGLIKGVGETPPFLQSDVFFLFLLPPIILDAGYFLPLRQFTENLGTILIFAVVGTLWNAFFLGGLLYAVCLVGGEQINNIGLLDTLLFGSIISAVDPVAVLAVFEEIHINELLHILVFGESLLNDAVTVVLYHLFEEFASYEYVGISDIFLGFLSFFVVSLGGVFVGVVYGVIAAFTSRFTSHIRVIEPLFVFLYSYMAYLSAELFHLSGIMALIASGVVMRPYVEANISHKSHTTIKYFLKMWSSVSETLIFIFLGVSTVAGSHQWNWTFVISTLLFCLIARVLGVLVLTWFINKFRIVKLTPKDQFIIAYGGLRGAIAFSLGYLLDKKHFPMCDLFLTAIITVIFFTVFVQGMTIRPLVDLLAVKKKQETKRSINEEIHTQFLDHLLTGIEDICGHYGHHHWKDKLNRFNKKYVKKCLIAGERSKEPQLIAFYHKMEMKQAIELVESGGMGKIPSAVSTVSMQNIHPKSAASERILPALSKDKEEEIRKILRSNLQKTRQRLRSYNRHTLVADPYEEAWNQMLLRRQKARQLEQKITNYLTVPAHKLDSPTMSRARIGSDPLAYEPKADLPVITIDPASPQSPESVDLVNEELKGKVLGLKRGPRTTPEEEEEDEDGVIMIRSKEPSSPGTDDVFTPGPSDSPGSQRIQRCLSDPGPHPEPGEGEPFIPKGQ
Where a name gives a salt, the structure may show the parent alone.
Reported Property: inhibition at 0.1 µM (%)
Please state the figure in %; there is no need to write the unit.

Cc1ccccc1C1CC(=NNC(=N)N)c2c(C)c[nH]c2C1.Cl (centres unmarked) [Compound 6, hydrochloride] tested on Na—H exchange (Rattus norvegicus, UniProt P26431) gave inhibition at 0.1 µM: 86

Form: item CCc1cnnc2c1C(=NNC(=N)N)CC(c1ccccc1Cl)C2.CS(=O)(=O)O (centres unmarked) [Compound 133, methanesulfonate] ; test system Na—H exchange (Rattus norvegicus, UniProt P26431); inhibition at 0.1 µM: 87

Reported Na—H exchange (Rattus norvegicus, UniProt P26431) inhibition at 0.1 µM for item Cc1n[nH]c2c1C(=NNC(=N)N)CC(c1ccccc1Cl)C2 (centres unmarked) [Compound 21, hydrochloride] was 72

Entry Cc1coc2c1C(=NNC(=N)N)CC(c1cccs1)C2.Cl (centres unmarked) [Compound 48, hydrochloride] , Na—H exchange (Rattus norvegicus, UniProt P26431) data, inhibition at 0.1 µM value: 70

The measured inhibition at 0.1 µM that CCc1cnnc2c1C(=NNC(=N)N)CC(c1cc(Cl)sc1Cl)C2 (centres unmarked) [Compound 134, methanesulfonate] showed for Na—H exchange (Rattus norvegicus, UniProt P26431) is 83

---
Per the reported Na—H exchange (Rattus norvegicus, UniProt P26431) data, Cc1ccnc2c1C(=NNC(=N)N)CC(c1ccccc1F)C2 (centres unmarked) [Compound 59, hydrochloride] has inhibition at 0.1 µM of 72

Assay Na—H exchange (Rattus norvegicus, UniProt P26431), sample CCOc1ccnc2c1C(=NNC(=N)N)CC(c1ccccc1Cl)C2 (centres unmarked) [Compound 80, hydrochloride] , inhibition at 0.1 µM read: 75

inhibition at 0.1 µM on Na—H exchange (Rattus norvegicus, UniProt P26431) for Cc1ccsc1C1CC(=NNC(=N)N)c2c(C)ccnc2C1.Cl (centres unmarked) [Compound 73, hydrochloride] is 76

Record Cc1cnnc2c1C(=NNC(=N)N)CC(c1cc(Cl)sc1Cl)C2.Cl (centres unmarked) [Compound 131, hydrochloride] has Na—H exchange (Rattus norvegicus, UniProt P26431) inhibition at 0.1 µM equal to 88

Value sought: inhibition at 0.1 µM, system Na—H exchange (Rattus norvegicus, UniProt P26431), item Cc1n[nH]c2c1C(=NNC(=N)NO)CC(c1cc(Cl)sc1Cl)C2.Cl (centres unmarked) [Compound 128, hydrochloride] . Result: 78

With Na—H exchange (Rattus norvegicus, UniProt P26431) as the test system, Cc1ccnc2c1C(=NNC(=N)N)CC(c1ccsc1Br)C2.Cl (centres unmarked) [Compound 123, hydrochloride] showed inhibition at 0.1 µM of 81

Readout inhibition at 0.1 µM for Cc1ccnc2c1C(=NNC(=N)N)CC(c1sccc1Cl)C2.Cl (centres unmarked) [Compound 74, hydrochloride] , test system Na—H exchange (Rattus norvegicus, UniProt P26431), was 98

Field inhibition at 0.1 µM (Na—H exchange (Rattus norvegicus, UniProt P26431)), entry Cc1ccnc2c1C(=NNC(=N)N)CC(c1cccs1)C2.Cl (centres unmarked) [Compound 70, hydrochloride] : 81

Tested system Na—H exchange (Rattus norvegicus, UniProt P26431); inhibition at 0.1 µM recorded for CS(=O)(=O)O.Cc1ccnc2c1C(=NNC(=N)N)CC(c1ccccc1Cl)C2 (single isomer, unassigned; (-)) [Compound 64, methanesulfonate] was 86
